Catalogue of molecules with associated photoluminescence quantum yield
# assay method text: photoluminescence quantum yield (fraction); solvent given as SMILES
# conditions: in CC(C)=O
Answer as a number with no unit attached.

Reference set (8 entries):
{"molecule": "O=P1(c2ccccc2)C(c2cc(C(F)(F)F)cc(C(F)(F)F)c2)=Cc2c3ccc4cccc5ccc(c6cc(-c7ccc(N(c8ccccc8)c8ccccc8)cc7)n1c26)c3c45 (centres undefined)", "photoluminescence quantum yield": 0.11}
{"molecule": "CN(C)c1ccc(C2=Nc3sc4cc(Cl)ccc4[n+]3[B-](F)(F)O2)cc1", "photoluminescence quantum yield": 0.21}
{"molecule": "COc1ccc2c(c1)sc1[n+]2[B-](F)(F)OC(c2ccc(N(C)C)cc2)=N1", "photoluminescence quantum yield": 0.56}
{"molecule": "CCCCN1c2ccccc2Sc2cc(/C=C/C3=Nc4ccc5ccccc5c4C3(C)C)ccc21", "photoluminescence quantum yield": 0.06}
{"molecule": "CCNc1ccc2c(C(F)(F)F)cc(=O)oc2c1", "photoluminescence quantum yield": 0.53}
{"molecule": "CN(C)c1ccc(C2=Nc3sc4ccccc4[n+]3[B-](F)(F)O2)cc1", "photoluminescence quantum yield": 0.31}
{"molecule": "CN(C)c1ccc(/C=C/C=C2\\CC/C(=C\\c3ccc(N(C)C)cc3)C2=O)cc1", "photoluminescence quantum yield": 0.31}
{"molecule": "COc1cc(OC)cc(C2=[O+][B-](F)(F)OC(c3cccs3)=C2)c1", "photoluminescence quantum yield": 0.01}

photoluminescence quantum yield reading for `O=S(=O)([O-])c1ccccc1/C=C/c1ccc(-c2nnc(-c3ccc(/C=C/c4ccccc4S(=O)(=O)[O-])cc3)o2)cc1` : 0.17

* * *

# assay method text: photoluminescence quantum yield (fraction); solvent given as SMILES
# conditions: in ClC(Cl)Cl
Label class 1 when photoluminescence quantum yield is strictly below 0.3; at or above that, label class 0.

{"molecule": "CC(C)n1c(=O)c2cc3ccc4cccc5ccc(c2c1=O)c3c45", "cat": "class 0"}
{"molecule": "Cc1cc(C)c(C2=C3C=CC=[N+]3[B-]3(c4ccc5ccc6cccc7ccc4c5c67)Oc4cc(O)cc5c6ccc(C)cc6c6cc2n3c6c45)c(C)c1 (stereo unspecified)", "cat": "class 1"}
{"molecule": "CN(C)c1ccc(C2=Cc3c4ccccc4c4ccccc4[n+]3[B-](F)(F)O2)cc1", "cat": "class 0"}
{"molecule": "COc1ccc2c(c1)CCC1=C(c3ccccc3)C3=Nc4c(-c5ccccc5)c5c(n4[B-](F)(F)[N+]3=C12)-c1ccc(OC)cc1CC5", "cat": "class 1"}

Now turn to the next molecule.
Inquiry: Is it true that photoluminescence quantum yield reported for `CCCCCCCCCCCCSc1cc2c3c(ccc4c5c(SCCCCCCCCCCCC)cc6c7c(ccc(c1c34)c75)C(=O)N(C1CCCCC1)C6=O)C(=O)N(C1CCCCC1)C2=O` is less than 0.3?
Reply text: class 1

* * *

# assay method text: photoluminescence quantum yield (fraction); solvent given as SMILES
# conditions: in ClC(Cl)Cl
property label: photoluminescence quantum yield
Answer as a number with no unit attached.

Reference set (2 entries):
{"molecule": "COc1cccc2cc(-c3ccc([N+](=O)[O-])cc3)c(=N)oc12", "photoluminescence quantum yield": 0.023}
{"molecule": "Cc1ccc(/C2=c3\\cc/c(o3)=C(\\c3ccc(C)cc3)c3ccc([nH]3)-c3ccc4n3[P-](=O)(=O)[N+]3=C(C=CC3=C4c3ccc[nH]3)c3ccc2[nH]3)cc1", "photoluminescence quantum yield": 0.15}

photoluminescence quantum yield reading for `Cc1ccccc1/C(C#N)=C/c1ccc(N(C)C)cc1` : 0.009

photoluminescence quantum yield reading for `CC(C)c1cccc(C(C)C)c1-n1c(=O)c2cc3nc(-c4ccccc4)c4cc5c(=O)n(-c6c(C(C)C)cccc6C(C)C)c(=O)c6cc7c(-c8ccccc8)nc8cc(c1=O)c2c1c3c4c(c56)c7c81` : 0.1
